Test system: Escherichia coli TOP10;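 further: peptides expressed intracellularly from a pBAD plasmid library in pooled LB shake-flask culture, induced with 0.3% L-arabinose, DNA abundance read by NGS, three biological replicates, DESeq2 with apeglm shrinkage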
assay-overview: shrunken log2 fold change of peptide-encoding DNA abundance (4.5 h post-induction vs induction); higher = less antimicrobial activity (less host growth inhibition)
particulars: time post-induction: 4.5 h; library: site-saturation at positions 5, 18, 19, 20
Kind request: treat -0.1 as inclusive, so shrunken log2 fold change at -0.1 or higher is yes (1), anything lower is no (0).

{"polymer-sequence": "RRIRFRPPRLPRPRPRPCSYPRP", "assayed-system": "Escherichia coli TOP10", "class-label": "no (0)"}
{"polymer-sequence": "RRIRKRPPRLPRPRPRPNRRPRP", "assayed-system": "Escherichia coli TOP10", "class-label": "yes (1)"}
{"polymer-sequence": "RRIRSRPPRLPRPRPRPMFAPRP", "assayed-system": "Escherichia coli TOP10", "class-label": "yes (1)"}
{"polymer-sequence": "RRIRYRPPRLPRPRPRPLDQPRP", "assayed-system": "Escherichia coli TOP10", "class-label": "no (0)"}
{"polymer-sequence": "RRIRNRPPRLPRPRPRPVESPRP", "assayed-system": "Escherichia coli TOP10", "class-label": "no (0)"}
{"polymer-sequence": "RRIRFRPPRLPRPRPRPNLVPRP", "assayed-system": "Escherichia coli TOP10", "class-label": "no (0)"}
{"polymer-sequence": "RRIRNRPPRLPRPRPRPEKKPRP", "assayed-system": "Escherichia coli TOP10", "class-label": "no (0)"}
{"polymer-sequence": "RRIRSRPPRLPRPRPRPQIPPRP", "assayed-system": "Escherichia coli TOP10", "class-label": "no (0)"}
{"polymer-sequence": "RRIRHRPPRLPRPRPRPGWFPRP", "assayed-system": "Escherichia coli TOP10", "class-label": "yes (1)"}
{"polymer-sequence": "RRIRRRPPRLPRPRPRPPTDPRP", "assayed-system": "Escherichia coli TOP10", "class-label": "yes (1)"}
{"polymer-sequence": "RRIRPRPPRLPRPRPRPMCPPRP", "assayed-system": "Escherichia coli TOP10", "class-label": "no (0)"}
{"polymer-sequence": "RRIRGRPPRLPRPRPRPTWLPRP", "assayed-system": "Escherichia coli TOP10", "class-label": "yes (1)"}
{"polymer-sequence": "RRIRYRPPRLPRPRPRPYKWPRP", "assayed-system": "Escherichia coli TOP10", "class-label": "no (0)"}
{"polymer-sequence": "RRIRIRPPRLPRPRPRPVDDPRP", "assayed-system": "Escherichia coli TOP10", "class-label": "yes (1)"}
{"polymer-sequence": "RRIRVRPPRLPRPRPRPSRQPRP", "assayed-system": "Escherichia coli TOP10", "class-label": "yes (1)"}
{"polymer-sequence": "RRIRQRPPRLPRPRPRPGLQPRP", "assayed-system": "Escherichia coli TOP10", "class-label": "yes (1)"}
{"polymer-sequence": "RRIRDRPPRLPRPRPRPFRQPRP", "assayed-system": "Escherichia coli TOP10", "class-label": "no (0)"}
{"polymer-sequence": "RRIRDRPPRLPRPRPRPKIPPRP", "assayed-system": "Escherichia coli TOP10", "class-label": "no (0)"}
{"polymer-sequence": "RRIRFRPPRLPRPRPRPLWTPRP", "assayed-system": "Escherichia coli TOP10", "class-label": "yes (1)"}
{"polymer-sequence": "RRIRRRPPRLPRPRPRPMIYPRP", "assayed-system": "Escherichia coli TOP10", "class-label": "no (0)"}
{"polymer-sequence": "RRIRYRPPRLPRPRPRPHYAPRP", "assayed-system": "Escherichia coli TOP10", "class-label": "yes (1)"}
{"polymer-sequence": "RRIRARPPRLPRPRPRPDKIPRP", "assayed-system": "Escherichia coli TOP10", "class-label": "yes (1)"}
{"polymer-sequence": "RRIRFRPPRLPRPRPRPVLMPRP", "assayed-system": "Escherichia coli TOP10", "class-label": "no (0)"}
{"polymer-sequence": "RRIRKRPPRLPRPRPRPKDLPRP", "assayed-system": "Escherichia coli TOP10", "class-label": "yes (1)"}
{"polymer-sequence": "RRIRDRPPRLPRPRPRPVHQPRP", "assayed-system": "Escherichia coli TOP10", "class-label": "yes (1)"}
{"polymer-sequence": "RRIRKRPPRLPRPRPRPCDFPRP", "assayed-system": "Escherichia coli TOP10", "class-label": "no (0)"}
{"polymer-sequence": "RRIRVRPPRLPRPRPRPRARPRP", "assayed-system": "Escherichia coli TOP10", "class-label": "yes (1)"}
{"polymer-sequence": "RRIRWRPPRLPRPRPRPGWDPRP", "assayed-system": "Escherichia coli TOP10", "class-label": "yes (1)"}
{"polymer-sequence": "RRIRCRPPRLPRPRPRPERQPRP", "assayed-system": "Escherichia coli TOP10", "class-label": "yes (1)"}
{"polymer-sequence": "RRIRWRPPRLPRPRPRPTQEPRP", "assayed-system": "Escherichia coli TOP10", "class-label": "yes (1)"}
{"polymer-sequence": "RRIRHRPPRLPRPRPRPVSPPRP", "assayed-system": "Escherichia coli TOP10", "class-label": "yes (1)"}
{"polymer-sequence": "RRIRSRPPRLPRPRPRPGIVPRP", "assayed-system": "Escherichia coli TOP10", "class-label": "yes (1)"}
